Hello, the source for this data is ChEMBL document CHEMBL5113453, in case you need it.

Tested on: HT-29
Test: Antiproliferative activity against human HT-29 cells measured after 48 hrs by SRB assay
Format: functional, cell-based
Settings: HT-29, 48 h
pIC50: −log10 of the molar value.
Think of 5 as a floor: if pIC50 stands on it or above, it is y; beneath it, n.

Solved cases below.
>  <Smiles Str>
O=C(Nc1ccc(Cl)c(C(F)(F)F)c1)N1CCN(c2cc(-c3cn(-c4ccccc4)nc3-c3cccc(O)c3)ccn2)CC1

>  <Group>
y

$$$$
>  <Smiles Str>
O=C(NCCCNc1cc(-c2cn(-c3ccccc3)nc2-c2cccc(O)c2)ccn1)Nc1cccc(C(F)(F)F)c1

>  <Group>
y

$$$$
>  <Smiles Str>
O=C1c2ccccc2-c2n[nH]c3cccc1c23

>  <Group>
n

$$$$

For the next question, use this molecule.
Q) API: above_or_equal(metric=pIC50, cutoff=5) for item O=C(NCCCNc1cc(-c2cn(-c3ccccc3)nc2-c2cccc(O)c2)ccn1)Nc1ccc(F)cc1
A) y
